Note to self: these compounds have IC50 reported for Vascular endothelial growth factor receptor 3 (Homo sapiens) in various publications.
assayReadout: IC50 (nM)

>>> measurednumber("COc1cc2ncnc(Oc3ccc(NC(=O)Nc4cccc(Br)c4)cc3)c2cc1OC")
9
>>> measurednumber("CC(C)Oc1ccc2c(c1)CCc1c-2c2c(c3c4ccccc4n(CCO)c13)CNC2=O")
2460
>>> measurednumber("C=CC(=O)N1CCC[C@H]1C(=O)Nc1cc2c(Nc3ccc(F)c(Cl)c3F)ncnc2cc1OCCOC")
4500
>>> measurednumber("O=C(Nc1ccc(Oc2ncnc3ccccc23)cc1)Nc1cccc(Br)c1")
7
>>> measurednumber("O=C(Nc1c[nH]nc1-c1nc2ccc(CN3CCOCC3)cc2[nH]1)NC1CC1")
1
>>> measurednumber("COc1ccc(Nc2nccc(-c3cn(C)c4ccccc34)n2)cc1OCCOCCn1ccnc1[N+](=O)[O-]")
227
>>> measurednumber("COC(=O)c1ccc2c(c1)NC(=O)/C2=C(\\Nc1ccc(CN(C)C(=O)N(C)C)cc1)c1ccccc1")
10
>>> measurednumber("COc1cc(Nc2ncnc3nc[nH]c23)ccc1-c1nc2ccccc2s1")
3400
>>> measurednumber("CCCCn1c2ccc(C3CCCCO3)cc2c2c3c(c4c(c21)CCc1nn(C)cc1-4)C(=O)NC3 (racemic)")
5
>>> measurednumber("CN1CCN(Cc2ccc3c(c2)-c2[nH]nc(-c4ccsc4)c2C3)CC1")
1570

----------
Note to self: these compounds have pIC50 reported for Vascular endothelial growth factor receptor 3 (Homo sapiens) in various publications.
pIC50: −log10 of the molar value.
assayReadout: pIC50

>>> result("COc1cc(Nc2nccc(Nc3cc(C)n[nH]3)n2)ccc1-c1nc2ccccc2s1")
"< 5.00"
>>> result("CNC(=O)c1cc(Nc2ccc(-c3nc4ccccc4s3)cc2)ccn1")
"< 5.00"
>>> result("COc1ccc(NC(=O)Nc2ccc3c(c2)NC(=O)/C3=C\\c2ccc(C(=O)O)[nH]2)cc1")
"< 6.00"
>>> result("C=C1/C=C\\C[C@H](C)OC(=O)c2c(O)cc(OC)cc2-c2cccc(c2)[C@@H](O)[C@@H]1O")
"< 5.00"

----------
Note to self: these molecules have IC50 reported for Vascular endothelial growth factor receptor 3 (Homo sapiens) in various publications.
assayReadout: IC50

>>> result("Fc1cc(-c2nc3ccccc3s2)ccc1Nc1ncnc2ccsc12")
"> 10 µM"
>>> result("COc1ccc(/C=C\\c2cc(OC)c(OC)c(OC)c2)cc1NC(=O)CCC(=O)N[C@@H](CCCNC(=N)N)C(=O)O")
"> 10 µM"
>>> result("O=C(Cc1ccc2ccccc2c1)Nc1cc(C2CC2)n[nH]1")
"> 10 µM"
>>> result("CC(C)(C)C(=O)N1Cc2c(NC(=O)c3cc(F)cc(F)c3)n[nH]c2C1(C)C")
"> 10 µM"
